Attribute: microsomal CLint at 0.5 μM
Assay: Determination of the microsomal half-life, human liver microsomes
Conditions: human, liver microsomes, pH 7.4
Structures can show the parent of a compound that is named as a salt.
measured.property: microsomal CLint at 0.5 μM

1) Cn1c(CCN2Cc3nccc(-c4ccncc4)c3C2=O)nc2ccccc21 [Example 367]
< 100 µL/min/mg
2) COc1ccc(-c2cn[nH]c2)c2c1CN(CCc1cn3ccccc3n1)C2=O [Example 372]
< 100 µL/min/mg
3) O=C1c2c(-c3ccncc3)cccc2C(F)(F)N1CCc1ccc2ccccc2n1 [Example 4]
100 to 220 µL/min/mg
4) O=C1c2c(cccc2N2CCN(c3cccnc3)CC2)CN1CCc1ccc2ccccc2n1 [Example 159, trifluoroacetate]
> 220 µL/min/mg
5) O=C1c2c(-c3cncnc3)ccc(F)c2CN1CCc1cn2ccccc2n1 [Example 381]
100 to 220 µL/min/mg
6) Cc1ncccc1COc1cccc2c1C(=O)N(CCc1ccc3ccccc3n1)C2 [Example 179]
> 220 µL/min/mg
7) Cc1cnc(CCN2Cc3nccc(N4CCOCC4)c3C2=O)cc1C [compound 520]
< 100 µL/min/mg
8) Cn1c(CCN2Cc3cccc(-c4ccncc4)c3C2=O)nc2c(F)cccc21 [Example 300, trifluoroacetate]
> 220 µL/min/mg
9) COc1ccc(NC2COC2)c2c1CN(CCc1cn3ccccc3n1)C2=O [Example 362]
< 100 µL/min/mg
10) O=C1c2c(N3CCS(=O)(=O)CC3)ccnc2CN1CCc1ccc2ccccc2n1 [Example 137]
< 100 µL/min/mg
11) O=C1c2c(cccc2N2CCOCC2)CN1CCc1ccc2ccccc2n1 [Example 99]
100 to 220 µL/min/mg
12) CCc1ccn2cc(CCN3Cc4nccc(N5CCOCC5)c4C3=O)nc2c1 [compound 555]
100 to 220 µL/min/mg
13) O=C1c2c(-c3cn[nH]c3)ccnc2CN1CCc1cn2ccccc2n1 [Example 365]
< 100 µL/min/mg
14) O=C1c2cccc(N3CCOCC3)c2CN1CCc1cn2ccccc2n1 [Example 308]
< 100 µL/min/mg
15) O=C1c2cccc(N3CCS(=O)(=O)CC3)c2CN1CCc1ccc2ccccc2n1 [Example 131]
< 100 µL/min/mg
16) CC(C)c1ccc(CCN2Cc3nccc(N4CCOCC4)c3C2=O)nc1 [compound 401]
< 100 µL/min/mg
17) O=C1c2c(cccc2-c2cncnc2)CN1CCc1ccc2sccc2n1 [Example 559]
> 220 µL/min/mg
18) O=C1c2c(cc(F)cc2-c2ccncc2)CN1CCc1ccc2ccccc2n1 [Example 15]
100 to 220 µL/min/mg

Measured values drawn from patent US9938269B2 for this set.
